Where do these numbers come from? They come from ChEMBL document CHEMBL5325488.

Assay: Drug concentration in SCID mouse tumor xenografted with human MV4-11 cells at 50 mg/kg, iv measured after 96 hrs by LC-MS/MS method
Format: ADME, organism-based, Neoplasm
Details: read-out: Ct
ASSAY_ENDPOINT: concentration at 96 h (ng/g)
One number for each entry, in ng/g.

// query concentration at 96 h value for entry `Cc1ncsc1-c1ccc([C@H](C)NC(=O)[C@@H]2C[C@@H](O)CN2C(=O)[C@@H](NC(=O)[C@H]2CC[C@H](CN3CC4(CCC(n5cc(-c6cc(-c7ccccc7O)nnc6N)cn5)CC4)C3)CC2)C(C)(C)C)cc1`
560

----------
Target: von Hippel-Lindau disease tumor suppressor/SWI/SNF-related matrix-associated actin-dependent regulator of chromatin subfamily A member 4 (Homo sapiens, UniProt P51532+P40337)
Sequence (P51532 whole entry, the tested form may be a part): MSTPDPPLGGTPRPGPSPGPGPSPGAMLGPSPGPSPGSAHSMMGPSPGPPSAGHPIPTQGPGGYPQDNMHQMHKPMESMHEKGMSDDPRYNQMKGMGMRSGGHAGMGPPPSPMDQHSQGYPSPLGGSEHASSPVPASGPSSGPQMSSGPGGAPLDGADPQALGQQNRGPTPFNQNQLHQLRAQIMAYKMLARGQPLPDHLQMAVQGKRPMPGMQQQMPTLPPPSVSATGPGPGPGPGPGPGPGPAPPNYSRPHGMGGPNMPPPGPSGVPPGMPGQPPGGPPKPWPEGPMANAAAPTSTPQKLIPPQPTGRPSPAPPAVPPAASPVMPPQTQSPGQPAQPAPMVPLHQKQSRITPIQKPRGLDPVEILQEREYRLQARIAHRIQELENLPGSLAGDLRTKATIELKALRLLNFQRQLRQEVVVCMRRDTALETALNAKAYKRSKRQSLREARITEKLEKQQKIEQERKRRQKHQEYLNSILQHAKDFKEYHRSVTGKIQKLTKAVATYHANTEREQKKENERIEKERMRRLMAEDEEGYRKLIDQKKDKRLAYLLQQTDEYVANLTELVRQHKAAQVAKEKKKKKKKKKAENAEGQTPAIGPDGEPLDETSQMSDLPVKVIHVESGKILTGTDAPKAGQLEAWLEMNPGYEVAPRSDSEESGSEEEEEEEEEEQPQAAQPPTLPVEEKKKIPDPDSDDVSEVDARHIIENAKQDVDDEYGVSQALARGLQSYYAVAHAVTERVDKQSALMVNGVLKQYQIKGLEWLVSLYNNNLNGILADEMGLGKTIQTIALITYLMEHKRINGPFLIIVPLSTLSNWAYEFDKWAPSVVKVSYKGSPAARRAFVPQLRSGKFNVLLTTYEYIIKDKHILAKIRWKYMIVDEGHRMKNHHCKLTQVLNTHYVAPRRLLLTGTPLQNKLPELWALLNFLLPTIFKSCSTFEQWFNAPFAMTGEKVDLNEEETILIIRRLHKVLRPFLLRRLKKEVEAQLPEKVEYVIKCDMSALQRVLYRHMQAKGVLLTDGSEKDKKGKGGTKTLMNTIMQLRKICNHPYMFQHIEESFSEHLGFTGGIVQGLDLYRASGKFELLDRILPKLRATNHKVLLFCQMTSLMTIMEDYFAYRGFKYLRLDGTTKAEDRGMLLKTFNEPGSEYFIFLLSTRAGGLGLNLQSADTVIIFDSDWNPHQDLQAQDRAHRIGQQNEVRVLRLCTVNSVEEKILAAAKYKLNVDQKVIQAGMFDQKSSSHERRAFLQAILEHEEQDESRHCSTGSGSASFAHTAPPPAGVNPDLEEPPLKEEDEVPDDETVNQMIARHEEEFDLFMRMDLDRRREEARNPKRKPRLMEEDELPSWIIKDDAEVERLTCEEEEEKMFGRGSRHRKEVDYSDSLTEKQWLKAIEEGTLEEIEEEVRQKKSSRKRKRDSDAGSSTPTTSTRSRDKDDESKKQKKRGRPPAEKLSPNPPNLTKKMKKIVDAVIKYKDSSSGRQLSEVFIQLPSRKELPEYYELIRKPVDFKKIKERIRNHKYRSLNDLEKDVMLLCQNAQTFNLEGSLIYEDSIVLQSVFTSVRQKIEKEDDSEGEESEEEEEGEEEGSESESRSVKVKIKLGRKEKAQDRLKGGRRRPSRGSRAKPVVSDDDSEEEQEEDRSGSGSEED
Sequence (P40337 whole entry, the tested form may be a part): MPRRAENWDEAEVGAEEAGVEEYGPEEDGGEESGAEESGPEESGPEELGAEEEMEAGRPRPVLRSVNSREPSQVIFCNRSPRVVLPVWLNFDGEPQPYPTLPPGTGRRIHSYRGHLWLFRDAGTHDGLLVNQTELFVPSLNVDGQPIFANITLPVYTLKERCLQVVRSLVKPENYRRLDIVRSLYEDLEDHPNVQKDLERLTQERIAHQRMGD
Test: PROTAC activity at VHL/C-terminal HiBiT fused SMARCA4 in human HeLa cells assessed as induction of SMARCA4 degradation incubated for 24 hrs by Nano-Glo HiBiT analysis
Type: cell-based
What DC50 was measured for each of the following?
Give bare numbers, in nM.

Cc1ncsc1-c1ccc([C@H](CC[C@H](C)CCN2CCC(c3ccc4c(c3)n(C3CCCC3)c3nc(=O)c5c(Br)cccc5n43)CC2)NC(=O)[C@@H]2C[C@@H](O)CN2C(=O)[C@@H](NC(=O)C2(F)CC2)C(C)(C)C)cc1; 9

Please examine the following record next.
// DC50 lookup, key: `Cc1ncsc1-c1ccc([C@H](C)NC(=O)[C@@H]2C[C@@H](O)CN2C(=O)[C@@H](c2cc(N3CCC(CN4CCC(O[C@H]5C[C@H](Oc6cccc(CN7C8CCC7CN(c7cc(-c9ccccc9O)nnc7N)C8)c6)C5)CC4)CC3)no2)C(C)C)cc1`
2

----------
Target: von Hippel-Lindau disease tumor suppressor/SWI/SNF-related matrix-associated actin-dependent regulator of chromatin subfamily A member 4 (Homo sapiens, UniProt P51532+P40337)
Assay: PROTAC activity at VHL/C-terminal HiBiT fused SMARCA4 in human HeLa cells assessed as induction of SMARCA4 degradation incubated for 24 hrs by Nano-Glo HiBiT analysis
Type: cell-based
Give DC50 for every item shown.
Numbers only, in nM.

Provide DC50 for all items below, preserving their order.
1. Cc1cc([C@H](C(=O)N2C[C@H](O)C[C@H]2C(=O)N[C@@H](CC(=O)NCCCCCCCCCn2cc(-c3cc(-c4ccccc4O)nnc3N)cn2)c2ccc(-c3scnc3C)cc2)C(C)C)on1
2. Cc1ncsc1-c1ccc([C@H](C)NC(=O)[C@@H]2C[C@@H](O)CN2C(=O)[C@@H](NC(=O)CCCn2cc(-c3cc(-c4ccccc4O)nnc3N)cn2)C(C)(C)C)cc1
3. Cc1ncsc1-c1ccc([C@H](C)NC(=O)[C@@H]2C[C@@H](O)CN2C(=O)[C@@H](NC(=O)CCCCCCCCCCCn2cc(-c3cc(-c4ccccc4O)nnc3N)cn2)C(C)(C)C)cc1
4. Cc1cc([C@H](C(=O)N2C[C@H](O)C[C@H]2C(=O)N[C@@H](CC(=O)NCCCCCCCCCCn2cc(-c3cc(-c4ccccc4O)nnc3N)cn2)c2ccc(-c3scnc3C)cc2)C(C)C)on1
5. Cc1ncsc1-c1ccc([C@H](C)NC(=O)[C@@H]2C[C@@H](O)CN2C(=O)[C@@H](NC(=O)CCCCCN2CCC(n3cc(-c4cc(-c5ccccc5O)nnc4N)cn3)CC2)C(C)(C)C)cc1
6. Cc1cc([C@H](C(=O)N2C[C@H](O)C[C@H]2C(=O)N[C@@H](CC(=O)NCCCCCCCCn2cc(-c3cc(-c4ccccc4O)nnc3N)cn2)c2ccc(-c3scnc3C)cc2)C(C)C)on1

75
463
13
53
248
66

GET /values?readout=DC50&item= `Cc1ncsc1-c1ccc([C@H](C)NC(=O)[C@@H]2C[C@@H](O)CN2C(=O)[C@@H](NC(=O)[C@H]2CC[C@H](CN3CCC4(CCC(n5cc(-c6cc(-c7ccccc7O)nnc6N)cn5)CC4)CC3)CC2)C(C)(C)C)cc1`
219
